Examples of molecules with documented IC50 follow.
tested-system: α4β1 integrin (Homo sapiens, UniProt P05556+P13612)
Construct: endogenous in cells; host or cells: Ramos cells
Sequence (P13612 34-1032): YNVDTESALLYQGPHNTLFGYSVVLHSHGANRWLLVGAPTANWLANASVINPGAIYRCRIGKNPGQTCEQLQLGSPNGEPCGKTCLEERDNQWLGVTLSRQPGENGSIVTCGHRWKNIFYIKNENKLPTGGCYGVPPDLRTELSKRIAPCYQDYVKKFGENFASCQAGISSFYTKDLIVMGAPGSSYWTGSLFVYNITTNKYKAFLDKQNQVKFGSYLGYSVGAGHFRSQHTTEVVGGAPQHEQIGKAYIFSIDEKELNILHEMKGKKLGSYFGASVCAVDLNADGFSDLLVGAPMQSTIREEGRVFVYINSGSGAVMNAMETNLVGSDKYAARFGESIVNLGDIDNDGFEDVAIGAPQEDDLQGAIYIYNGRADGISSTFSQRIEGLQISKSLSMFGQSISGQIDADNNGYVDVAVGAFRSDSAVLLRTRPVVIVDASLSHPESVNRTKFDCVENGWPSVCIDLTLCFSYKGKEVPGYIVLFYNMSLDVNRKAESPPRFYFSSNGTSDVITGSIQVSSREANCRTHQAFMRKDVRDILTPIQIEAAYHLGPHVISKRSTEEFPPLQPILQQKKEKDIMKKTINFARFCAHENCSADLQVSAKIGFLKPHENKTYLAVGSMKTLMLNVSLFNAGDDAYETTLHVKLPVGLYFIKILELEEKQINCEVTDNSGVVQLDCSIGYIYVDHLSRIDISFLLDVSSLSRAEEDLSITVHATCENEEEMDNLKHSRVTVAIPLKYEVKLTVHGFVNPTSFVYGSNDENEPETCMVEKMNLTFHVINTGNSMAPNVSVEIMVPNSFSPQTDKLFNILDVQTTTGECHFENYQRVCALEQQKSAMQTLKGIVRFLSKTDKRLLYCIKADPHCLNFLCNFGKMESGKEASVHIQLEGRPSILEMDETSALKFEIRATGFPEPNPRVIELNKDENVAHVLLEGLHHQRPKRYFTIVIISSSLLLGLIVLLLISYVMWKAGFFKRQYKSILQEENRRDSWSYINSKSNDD
Sequence (P05556 21-798): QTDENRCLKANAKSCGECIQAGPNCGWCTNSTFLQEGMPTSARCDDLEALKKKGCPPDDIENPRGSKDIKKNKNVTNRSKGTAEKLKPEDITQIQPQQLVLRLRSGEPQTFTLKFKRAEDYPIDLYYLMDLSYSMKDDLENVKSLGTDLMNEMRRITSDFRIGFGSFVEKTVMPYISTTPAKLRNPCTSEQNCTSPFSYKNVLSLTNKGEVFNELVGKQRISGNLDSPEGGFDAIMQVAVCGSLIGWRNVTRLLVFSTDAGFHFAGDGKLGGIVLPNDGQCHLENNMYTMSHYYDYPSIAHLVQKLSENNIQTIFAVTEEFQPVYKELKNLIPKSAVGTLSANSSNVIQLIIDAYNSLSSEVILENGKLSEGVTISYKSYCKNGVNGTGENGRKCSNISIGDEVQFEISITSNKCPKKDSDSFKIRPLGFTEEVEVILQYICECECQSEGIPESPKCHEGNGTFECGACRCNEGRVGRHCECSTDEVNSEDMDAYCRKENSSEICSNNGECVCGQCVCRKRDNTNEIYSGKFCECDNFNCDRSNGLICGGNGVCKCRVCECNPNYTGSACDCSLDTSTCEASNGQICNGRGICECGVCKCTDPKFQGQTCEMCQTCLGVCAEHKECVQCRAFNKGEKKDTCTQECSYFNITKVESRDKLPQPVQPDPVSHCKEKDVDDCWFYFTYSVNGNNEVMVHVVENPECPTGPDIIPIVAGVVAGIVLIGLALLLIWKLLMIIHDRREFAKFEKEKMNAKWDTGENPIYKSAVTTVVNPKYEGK
assay-comment: Adhesion of calcein-labeled Ramos cells to CS1 (fibronectin) peptide conjugated ovalbumin
Type: cell-based
condition-context: Table 3; Ramos cell adhesion to CS1 conjugated ovalbumin, 30 minutes at 37° C.
// return numeric value only (unit: nM, not printed)

Sample records with IC50:
INSERT INTO results (structure_as_smiles, measure_name, value_observed) VALUES
  ('CCc1ccn(Cc2ccccc2Cl)c(=O)c1NC(=O)N[C@@H](CC(=O)O)c1ccc(C)cc1', 'IC50', 10),
  ('Cc1ccc([C@H](CC(=O)O)NC(=O)Nc2c(C)ccn(Cc3c(Cl)cccc3Cl)c2=O)cc1', 'IC50', 20),
  ('O=C(O)C[C@H](NC(=O)Nc1c(O)ccn(Cc2ccccc2Cl)c1=O)c1ccc2c(c1)OCO2', 'IC50', 20),
  ('COc1ccc([C@H](CC(=O)O)NC(=O)Nc2c(O)ccn(Cc3ccccc3Cl)c2=O)cc1C', 'IC50', 8),
  ('Cc1ccc([C@H](CC(=O)O)NC(=O)Nc2c(NCc3ccccn3)ccn(Cc3ccccc3Cl)c2=O)cc1', 'IC50', 15),
  ('Cc1ccc([C@H](CC(=O)O)NC(=O)Nc2c(Nc3ccccc3)ccn(Cc3ccccc3Cl)c2=O)cc1', 'IC50', 20),
  ('CCCNc1ccn(Cc2ccccc2Cl)c(=O)c1NC(=O)N[C@@H](CC(=O)O)c1ccc(C)cc1', 'IC50', 10),
  ('Cc1ccc([C@H](CC(=O)O)NC(=O)Nc2c(Nc3ccccn3)ccn(Cc3ccccc3Cl)c2=O)cc1', 'IC50', 15),
  ('Cc1ccc([C@H](CC(=O)O)NC(=O)Nc2c(C)ccn(Cc3ccc(Cl)cc3Cl)c2=O)cc1', 'IC50', 30),
  ('O=C(O)C[C@H](NC(=O)N1CCCCc2ccn(Cc3ccccc3)c(=O)c21)c1ccc2c(c1)OCO2', 'IC50', 4000);

Problem: Quote IC50 reported for `O=C(O)C[C@H](NC(=O)Nc1c(O)ccn(Cc2ccccc2Cl)c1=O)c1ccccc1` please.
Solution: 10

Problem: Quote IC50 reported for `Cc1ccc([C@H](CC(=O)O)NC(=O)Nc2c(N)ccn(Cc3ccccc3Cl)c2=O)cc1` please.
Solution: 10

Problem: Quote IC50 reported for `Cc1cc(C)cc([C@H](CC(=O)O)NC(=O)Nc2c(O)ccn(Cc3ccccc3Cl)c2=O)c1` please.
Solution: 15
